Every entry's value here was drawn from PubChem BioAssay.

Assay: probe aLefty2 binding to arrayed compounds – biochemical, biotinylated probe, 635/667 nm fluorescence, primary screen (AID 1094);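 note: score merges spot fluorescence near 667 nm with spot signal-to-noise ratio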
Details: small-molecule microarray, higher = more signal
quantity: composite z-score
Lab note: jot the number down without any unit.

compound	numeric.value
O=C1O[C@H](Cc2ccccc2)[C@@H]2[C@H]3C=CCCC=C3CN2[C@H]1Cc1ccc(O)cc1	-0.0591
OCCCC1=CC(c2ccc(CN3CCCC3)cc2)N(Cc2cccc(OC(F)(F)F)c2)CC1 (centres undefined)	0.0029

Quick note, composite z-score for C=C(CCCC)/C(=C/C[C@H](OC(C)=O)c1cccc(OCCO)c1)c1cnc2ccccc2c1 landed at -0.116

Quick note, composite z-score for NC(=O)NCC#Cc1ccc2c(c1)[C@]1(C(=O)N2)[C@H](c2ccc(OCCO)cc2)N2[C@H](c3ccccc3)[C@H](c3ccccc3)OC(=O)[C@H]2[C@@H]1C(=O)O landed at -0.139
